target of assay: GABA-A receptor; alpha-1/beta-2/gamma-2 (Homo sapiens, UniProt P14867+P18507+P47870)
Sequence (P14867 whole entry): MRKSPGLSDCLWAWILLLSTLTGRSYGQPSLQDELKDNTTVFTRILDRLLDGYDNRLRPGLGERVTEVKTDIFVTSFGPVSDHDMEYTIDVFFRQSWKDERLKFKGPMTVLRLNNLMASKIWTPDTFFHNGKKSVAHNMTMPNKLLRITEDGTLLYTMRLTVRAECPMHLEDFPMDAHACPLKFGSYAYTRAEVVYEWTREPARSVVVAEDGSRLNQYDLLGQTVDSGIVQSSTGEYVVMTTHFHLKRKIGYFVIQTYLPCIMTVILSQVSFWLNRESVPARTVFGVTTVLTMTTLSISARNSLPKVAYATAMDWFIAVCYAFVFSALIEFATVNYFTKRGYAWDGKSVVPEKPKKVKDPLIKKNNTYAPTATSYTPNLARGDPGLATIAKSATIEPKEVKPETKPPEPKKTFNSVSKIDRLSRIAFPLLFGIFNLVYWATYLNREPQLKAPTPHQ
Sequence (P47870 whole entry): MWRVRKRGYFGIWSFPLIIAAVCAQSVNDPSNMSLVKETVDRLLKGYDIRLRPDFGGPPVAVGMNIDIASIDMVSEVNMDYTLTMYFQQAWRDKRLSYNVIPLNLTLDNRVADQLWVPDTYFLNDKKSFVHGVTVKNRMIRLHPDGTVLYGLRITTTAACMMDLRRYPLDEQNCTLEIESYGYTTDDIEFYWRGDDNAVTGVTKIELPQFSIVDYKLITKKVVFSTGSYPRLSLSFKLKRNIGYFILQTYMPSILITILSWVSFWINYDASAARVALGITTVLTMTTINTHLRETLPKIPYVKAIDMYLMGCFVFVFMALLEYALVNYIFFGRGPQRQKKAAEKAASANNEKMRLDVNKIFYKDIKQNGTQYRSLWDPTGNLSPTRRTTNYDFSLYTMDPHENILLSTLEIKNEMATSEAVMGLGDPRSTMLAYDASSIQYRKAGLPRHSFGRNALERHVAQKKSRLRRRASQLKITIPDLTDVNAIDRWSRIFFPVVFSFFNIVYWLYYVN
Sequence (P18507 whole entry): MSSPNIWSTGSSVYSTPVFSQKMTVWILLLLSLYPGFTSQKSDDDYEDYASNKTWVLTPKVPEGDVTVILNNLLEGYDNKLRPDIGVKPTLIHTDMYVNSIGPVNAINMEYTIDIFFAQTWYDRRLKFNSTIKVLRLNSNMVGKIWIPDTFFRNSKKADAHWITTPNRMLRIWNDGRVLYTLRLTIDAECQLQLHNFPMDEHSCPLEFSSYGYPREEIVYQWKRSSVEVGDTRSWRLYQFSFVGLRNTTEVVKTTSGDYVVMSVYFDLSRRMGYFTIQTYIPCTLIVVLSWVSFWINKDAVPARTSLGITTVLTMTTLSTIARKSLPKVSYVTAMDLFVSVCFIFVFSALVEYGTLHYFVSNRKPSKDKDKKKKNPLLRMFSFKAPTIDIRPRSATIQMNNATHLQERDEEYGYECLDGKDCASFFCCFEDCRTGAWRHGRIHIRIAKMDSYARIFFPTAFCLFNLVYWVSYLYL
experimental protocol: Antagonist activity at human alpha1beta2gamma2S GABA-A receptor expressed in tsA201 cells assessed as inhibition of GABA-induced effect after 30 mins by FLIPR membrane potential blue assay
measured property: IC50 (nM)

>>> experimental_value("On1cc(C2CCNCC2)c(-c2c[nH]c(-c3ccccc3)n2)n1")
9700
>>> experimental_value("On1ncc(C2CCNCC2)c1-c1c[nH]c(-c2ccccc2)n1")
690
>>> experimental_value("COc1ccc(-c2ccc(=N)n(CCCC(=O)O)n2)cc1")
240

[1] On1cc(C2CCNCC2)c(-c2cn(Cc3ccccc3)c(-c3ccccc3)n2)n1
[2] On1cc(C2CCNCC2)c(-c2c[nH]cn2)n1
[3] On1ncc(C2CCNCC2)c1-c1cn(Cc2ccccc2)c(-c2ccccc2)n1
List from greatest to least IC50. Answer by writing out the labels in the requested order.
2, 3, 1
(2: 30000 nM, 3: 780 nM, 1: 210 nM)
